target: T1, hERα-LBD (ligand binding domain of estrogen receptor α) (human, UniProt P03372 297-554)
T1 construct: Assayed with estradiol, diethylstilbestrol, genistein or tamoxifen present; the ligand is named under assay in each row
T1 sequence (looked up): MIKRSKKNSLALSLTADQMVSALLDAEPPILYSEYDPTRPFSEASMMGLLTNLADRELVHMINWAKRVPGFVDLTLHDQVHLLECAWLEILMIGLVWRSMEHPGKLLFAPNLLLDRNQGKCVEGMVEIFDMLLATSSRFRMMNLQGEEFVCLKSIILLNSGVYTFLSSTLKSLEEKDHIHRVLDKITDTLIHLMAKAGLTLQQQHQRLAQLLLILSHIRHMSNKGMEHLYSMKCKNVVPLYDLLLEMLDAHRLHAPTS
assay.name: fluorescence polarization, labelled peptide 10 nM, hERα-LBD titrated, estradiol present
Ends that are not written are not given here.
reported.endpoint: Kd

Fill blank: measured Kd of the binder C(5‑iodoacetamidofluorescein)ESKGHKKLLQLLTCSSDDR (The peptide has a second, internal Cys) [SRC3-1 coregulator peptide] is ____. 160 nM
